Sourced from patent US20020115721A1

Reported melting point values for a set of molecules

Known results for molecules:
State its melting point: `CCOC(=O)[C@H](N)C[C@H](C)C(=O)OCC.Cl`
158 to 160 °C

State its melting point: CCOC(=O)[C@H](C)C[C@H](N)C(=O)OCC.Cl [Compound 3]
158 to 160 °C

State its melting point: `COC(=O)[C@H](N)C[C@H](C)C(=O)OC.Cl`
138 to 139 °C

# input for lookup
State its melting point: COC(=O)[C@H](C)C[C@H](N)C(=O)OC.Cl [Compound 2]
138 to 139 °C
